Listing: Tagg (pH 7.1) of selected molecules
assay: Thermostability, ProteoStat Thermal Shift Stability Kit, temperature of aggregation; format: physicochemical; conditions: pH 7.1; heated from 25° C. to 95° C.
MEASURED_PARAMETER: Tagg (pH 7.1)

- MOLECULE: "SEQID-00099: nutritive polypeptide (protein, listed as Thermosynechococcus elongatus) MNQSEILEKVKAIVADQLSVDPEKVVPEASFAEDLNADSLDSVELIMALEEEFGVEIPDEEAEKLKTVQDVLDFINNKVAA"
  RESULT_QUALIFIER: "="
  ASSAY_RESULT: 64
- MOLECULE: "SEQID-00265: nutritive polypeptide (protein, listed as Bos taurus) SEGDRLRVELAEKANKLQNELDNVSTLLEEAEKKGIKFAKDAAGLESQLQDTQELLQEETRQKLNLSSRIRQLEEERSSLQEQQEEEEEARRSLEKQLQALQAQLTDTKKKVDDDLGTIENLEEAKKKLLKDVEVLSQRLEEKALAYDKLEKTKTRLQQELDDLLVDLDHQRQIVSNLEKKQKKFDQLLAEEKNISARYAEERDRAEAEAREKETKALSLARALEEALEAREEAERQNKQLRADMEDLMSSKDDVGKNVHELEKSKRALE"
  RESULT_QUALIFIER: ">"
  ASSAY_RESULT: 95
- MOLECULE: "SEQID-00606: protein of the 168 nutritive polypeptide library (protein, Glycine max, protein of the 168 nutritive polypeptide library) MASEGDHHHHHHHHQDHDHHHHDHDHHHHHDGEGETNSWVGKDGKVYHSHDGLAPHSHEPIYSPGYFTRRAPPLLNRNFNERAFTVGIGGPVGTGKTALMLALCELLRENYSLAAVTNDIFTKEDGEFLVKHKALPEERIRAVETGGCPHAAIREDISINLGPLEELSNLFKADILLCESGGDNLAANFSRELADYIIYIIDVSGGDKIPRKGGPGITQADLLVINKTDLAPAIGADLAVMQRDALRMRDGGPFVFAQVKHKIGVEEIGNLVLQAWEAATGNKRH"
  RESULT_QUALIFIER: "="
  ASSAY_RESULT: 95
- MOLECULE: "SEQID-00305: nutritive polypeptide (protein, listed as Bos taurus) MPHQYPALTPEQKKELCDIAHRIVAPGKGILAADESTGSIAKRLQSIGTENTEENRRFYRQLLLTADDRVNPCIGGVILFHETLYQKADDGRPFPQVIKAKGGVVGIKVDKGVVPLAGTNGETTTQGLDGLSERCAQYKKDGADFAKWRCVLKIGEHTPSSLAIMENANVLARYASICQQNGIVPIVEPEILPDGDHDLKRCQYVTEKVLAAVYKALSDHHIYLEGTLLKPNMVTPGHACTQKYSHEEIAMATVTALRRTVPPAVPGITFLSGGQSEEEASINLNAINKCPLLKPWALTFSYGRALQASALKAWGGKKENLKAAQEEYVKRALANSLACQGKYTPSGKAGAAASESLFISNHAY"
  RESULT_QUALIFIER: "="
  ASSAY_RESULT: 48
- MOLECULE: "SEQID-00220: nutritive polypeptide (protein, listed as Bos taurus) DTKKKVDDDLGTIENLEEAKKKLLKDVEVLSQRLEEKALAYDKLEKTKTRLQQELDDLLVDLDHQ"
  RESULT_QUALIFIER: ">"
  ASSAY_RESULT: 95
- MOLECULE: "SEQID-00102: nutritive polypeptide (protein, listed as Lactobacillus johnsonii) MTEEEIFNKIADMISERFSIDRDKITKDLNFQNDLDADSIDFVELVMDLEDTFGAEIPDDDAEKLQTVGEAVEYIKSHQN"
  RESULT_QUALIFIER: ">"
  ASSAY_RESULT: 95
- MOLECULE: "SEQID-00226: nutritive polypeptide (protein, listed as Bos taurus) QLQALQAQLTDTKKKVDDDLGTIENLEEAKKKLLKDVEVLSQRLEEKALAYDKLEKTKTRLQQELDDLLVDLDHQRQIVSNLEKKQKKFDQLLAEEKNIS"
  RESULT_QUALIFIER: ">"
  ASSAY_RESULT: 95
